Origin of values: patent US12180187B2

- Test system: ALOMY
- procedure.details: Post-emergence action against ALOMY, 320 g/ha
- Format: in vivo, Alopecurus myosuroides
- reported.conditions: dosage 320 g/ha, visual rating about 3 weeks after treatment vs untreated controls (100% = plants died)
recorded.metric: Post-emergence action against ALOMY (%)

{"compound": "COC(=O)COc1nn(-c2ccccc2F)c(-c2ccc(F)nc2)c1C(F)(F)F [VII-031]", "system.name": "ALOMY", "recorded.value": 100}
{"compound": "CCOC(=O)COc1nn(-c2ccccc2F)c(-c2ccnc(F)c2)c1Br [VIII-002]", "system.name": "ALOMY", "recorded.value": 90}
{"compound": "O=C(O)COc1nn(-c2ccccc2F)c(-c2ccc(F)nc2)c1I [VII-037]", "system.name": "ALOMY", "recorded.value": 100}
{"compound": "O=C(O)COc1nn(-c2ccccc2F)c(-c2ccnc(F)c2)c1Br [VIII-004]", "system.name": "ALOMY", "recorded.value": 90}
{"compound": "CCOC(=O)COc1nn(-c2ccccc2C)c(-c2ccc(F)nc2)c1C(F)(F)F [VII-105]", "system.name": "ALOMY", "recorded.value": 90}
{"compound": "CCOC(=O)COc1nn(-c2ccccc2F)c(-c2ccc(F)nc2)c1C(F)(F)F [VII-010]", "system.name": "ALOMY", "recorded.value": 90}
{"compound": "COC(=O)C(C)Oc1nn(-c2ccccc2)c(-c2ccc(F)nc2)c1Cl (stereo not drawn) [VII-023]", "system.name": "ALOMY", "recorded.value": 90}
{"compound": "COC(=O)[C@H](C)Oc1nn(-c2cc(F)ccc2F)c(-c2ccc(F)nc2)c1Br [VII-107]", "system.name": "ALOMY", "recorded.value": 90}
{"compound": "COC(=O)C(C)Oc1nn(-c2ccccc2)c(-c2cccnc2)c1Cl (stereo not drawn) [VII-032]", "system.name": "ALOMY", "recorded.value": 90}

----------
Measured Pre-emergence action against ECHGC in %, listed per entry.
- Tested on: ECHGC
- procedure.details: Pre-emergence action at 320 g/ha against ECHGC
- Format: in vivo, Echinochloa crus-galli
- reported.conditions: visual scoring after about 3 weeks vs untreated controls
recorded.metric: Pre-emergence action against ECHGC in % (%)

{"compound": "CCOC(=O)CN(C)S(=O)(=O)NC(=O)COc1nn(-c2ccccc2F)c(-c2ccc(F)nc2)c1Br", "recorded.value": 80}
{"compound": "C[C@@H](Oc1nn(-c2ccccc2F)c(-c2cncnc2)c1Br)C(=O)O", "recorded.value": 80}
{"compound": "COC(=O)C(C)Oc1nn(-c2ccccc2F)c(-c2ccc(F)nc2)c1Br (stereo not drawn)", "recorded.value": 90}
{"compound": "COC(=O)COc1nn(-c2ccccc2F)c(-c2ccc(F)nc2)c1I", "recorded.value": 90}
{"compound": "COC(=O)[C@@H](C)Oc1nn(-c2ccccc2)c(-c2cccnc2)c1Br", "recorded.value": 80}
{"compound": "COC(=O)[C@@H](C)Oc1nn(-c2ccccc2)c(-c2cncnc2)c1Br", "recorded.value": 90}
{"compound": "COC(=O)[C@@H](C)Oc1nn(-c2cc(F)ccc2F)c(-c2cncc(F)c2)c1I", "recorded.value": 90}
{"compound": "CCOC(=O)COc1nn(-c2ccc(F)cc2F)c(-c2ccc(F)nc2)c1Cl", "recorded.value": 100}
{"compound": "COCCOC(=O)COc1nn(-c2ccccc2F)c(-c2ccc(F)nc2)c1Br", "recorded.value": 90}
{"compound": "COC(=O)COc1nn(-c2cc(F)ccc2F)c(-c2ccc(F)nc2)c1Br", "recorded.value": 80}
{"compound": "COC(=O)C1CCCN1C(=O)COc1nn(-c2ccccc2F)c(-c2ccc(F)nc2)c1Br (stereo not drawn)", "recorded.value": 90}
{"compound": "COC(=O)C(C)Oc1nn(-c2ccccc2)c(-c2cccnc2)c1Cl (stereo not drawn)", "recorded.value": 90}
{"compound": "O=C(O)CNC(=O)COc1nn(-c2ccccc2F)c(-c2ccc(F)nc2)c1Br", "recorded.value": 100}
{"compound": "CCOC(=O)COc1nn(-c2ccccc2F)c(-c2ccc(F)nc2)c1Br", "recorded.value": 100}
{"compound": "COC(=O)CCOC(=O)COc1nn(-c2ccccc2F)c(-c2ccc(F)nc2)c1Br", "recorded.value": 100}
{"compound": "CN(C)S(=O)(=O)NC(=O)COc1nn(-c2ccccc2F)c(-c2ccc(F)nc2)c1Br", "recorded.value": 90}
{"compound": "CCOC(=O)COc1nn(-c2ccccc2F)c(-c2ccnc(F)c2)c1Br", "recorded.value": 90}
{"compound": "C[C@@H](Oc1nn(-c2ccccc2F)c(-c2cncc(F)c2)c1Br)C(=O)O", "recorded.value": 90}
